System: uninfected cells
Test: Cytotoxicity on compound-exposed uninfected cells
observable: IC50 (µM)
One number for each entry, in µM.

Ask: State measured IC50 of the compound C=C(C)[C@@H]1CC[C@]2(CO)CC[C@]3(C)[C@H](CC[C@@H]4[C@@]5(C)CC[C@H](OC(=O)CC(C)(C)CC(=O)O)C(C)(C)[C@@H]5CC[C@]43C)[C@@H]12 with uninfected cells.
Result: 28.9

# context switch: different compound, same IC50
Ask: # lookup: uninfected cells IC50, key = C=C(C)[C@@H]1CC[C@]2(CO)CC[C@]3(C)[C@H](CC[C@@H]4[C@@]5(C)CC[C@H](OC(=O)CC(C)(C)C(=O)O)C(C)(C)[C@@H]5CC[C@]43C)[C@@H]12
Result: 33.5
